biological target: human thyroid receptor alpha ligand-binding domain (LBD) (Homo sapiens); construct: purchased Invitrogen; test: TR-FRET thyroid receptor alpha coactivator assay (THR biochemical assay, Assay 1); settings: Table 4, THR-alpha, read-out: Activity category Assay 1 (EC50, THR-alpha agonist activity)
Sequence (P10827 163-410 isoform P10827-2 limits assumed, other chains not shown): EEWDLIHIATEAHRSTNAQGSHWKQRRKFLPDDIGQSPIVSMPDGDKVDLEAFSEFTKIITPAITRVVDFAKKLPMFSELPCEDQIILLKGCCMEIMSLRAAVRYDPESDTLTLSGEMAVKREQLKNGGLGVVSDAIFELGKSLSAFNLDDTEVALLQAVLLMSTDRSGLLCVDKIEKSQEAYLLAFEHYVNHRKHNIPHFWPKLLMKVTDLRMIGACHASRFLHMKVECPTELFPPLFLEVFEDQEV
Measurement type: EC50

CC(C)C1(C)C(=O)Nc2ccc(Oc3c(Cl)cc(-n4nc(N)c(=O)[nH]c4=O)cc3Cl)cc21 (centres unmarked)	< 0.05 µM
Cc1cc(-n2nc(C#N)c(=O)[nH]c2=O)cc(C)c1Cc1cnc2[nH]cc(C(C)C)c2n1	0.25 to 1 µM
N#Cc1nn(-c2cc(Cl)c(Oc3ccc4[nH]cc(C#N)c4c3)c(Cl)c2)c(=O)[nH]c1=O	> 25 µM
CC(C)c1cc(=O)[nH]c2ccc(Oc3c(Cl)cc(-n4nc(N)c(=O)[nH]c4=O)cc3Cl)cc12	0.05 to 0.25 µM
CCn1nc(-c2cc(Cl)c(Oc3cc(C(C)C)c(=O)[nH]n3)c(Cl)c2)c(=O)[nH]c1=O	1 to 25 µM

Can you look up EC50 on human thyroid receptor alpha ligand-binding domain (LBD) (Homo sapiens) for `CC(C)c1cc(Oc2c(Cl)cc(-c3nn(C(F)F)c(=O)[nH]c3=O)cc2Cl)n[nH]c1=O` ?
0.25 to 1 µM

Next entry: `Cc1cc(-n2nc(C#N)c(=O)[nH]c2=O)cc(C)c1Cc1ccc2c(c1)C1(CC1)C(=O)N2`
< 0.05 µM

Entry `Nc1nn(-c2cc(Cl)c(Oc3n[nH]c(=O)cc3-c3cc4ccccc4cn3)c(Cl)c2)c(=O)[nH]c1=O` please
0.25 to 1 µM

What do you get for `C[C@H](c1cc(Oc2c(Cl)cc(-n3nc(N)c(=O)[nH]c3=O)cc2Cl)n[nH]c1=O)C1CCC1` ?
0.05 to 0.25 µM

Thanks! And `Nc1nn(-c2cc(Cl)c(Oc3n[nH]c(=O)cc3-c3ccc4c(c3)CCCC4)c(Cl)c2)c(=O)[nH]c1=O` ?
0.05 to 0.25 µM

What about `Nc1nn(-c2cc(Cl)c(Oc3n[nH]c(=O)cc3-c3ccc4ccnnc4c3)c(Cl)c2)c(=O)[nH]c1=O` ?
> 25 µM

# repeat for `Cc1cc(-n2nc(N)c(=O)[nH]c2=O)cc(C)c1Cc1ccc(O)c(-c2ccccc2)n1`
< 0.05 µM

Then `CC1(C)C(=O)Nc2ccc(Oc3c(Cl)cc(-n4nc(N)c(=O)[nH]c4=O)cc3Cl)cc21` ?
< 0.05 µM

Same for `CC(C)[C@@H](C)c1cc(Oc2c(Cl)cc(-n3nc(N)c(=O)[nH]c3=O)cc2Cl)n[nH]c1=O`
0.25 to 1 µM

Also CC(c1c[nH]c2ccc(Oc3c(Cl)cc(-n4nc(C#N)c(=O)[nH]c4=O)cc3Cl)cc12)C(F)(F)F (centres unmarked) , if possible.
< 0.05 µM

Try the molecule `CC(C)c1cc(Cc2c(Cl)cc(-n3nc(N)c(=O)[nH]c3=O)cc2Cl)n[nH]c1=O`
0.05 to 0.25 µM

What do you get for `Cc1cccc(-c2cc(=O)[nH]nc2Oc2c(Cl)cc(-n3nc(N)c(=O)[nH]c3=O)cc2Cl)c1` ?
> 25 µM

Similarly, `Nc1nn(-c2cc(Cl)c(Oc3cc(C4CCC4)c(=O)[nH]n3)c(Cl)c2)c(=O)[nH]c1=O` ?
0.05 to 0.25 µM

Input CCC(C)c1cc(Oc2c(Cl)cc(-n3nc(N)c(=O)[nH]c3=O)cc2Cl)n[nH]c1=O (centres unmarked) [Compound 39-B]
0.05 to 0.25 µM

Note, next up: `Cc1cc(-n2nc(N)c(=O)[nH]c2=O)cc(C)c1Cc1ccc2[nH]cc(C(C)C)c2n1`
< 0.05 µM

Follow-up entry: `CCc1cccc(-c2cc(=O)[nH]nc2Oc2c(Cl)cc(-n3nc(N)c(=O)[nH]c3=O)cc2Cl)c1`
> 25 µM

Also, `Nc1nn(-c2cc(Cl)c(Oc3n[nH]c(=O)cc3-c3cnc4ccccc4c3)c(Cl)c2)c(=O)[nH]c1=O` please.
> 25 µM
